target: Aβ 1-42 (Homo sapiens, UniProt P05067); construct: The reaction solutions contained Aβ 1-42 at concentrations; assay: Fluorometric H2O2 assay (inhibition of Abeta H2O2 production); type: biochemical; conditions: concentration required to inhibit 50% of Abeta H2O2 production; read-out: H2O2 IC50
Sequence (P05067 672-713 limits assumed): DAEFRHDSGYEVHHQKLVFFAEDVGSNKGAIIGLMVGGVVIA
Below, each entry is listed with its recorded log10 IC50.
Measure: log10 IC50 (log10 of the value in µM)

{"Compound String": "CCc1cnc2c(O)c(I)ccn2c1=O", "Endpoint Result": -0.55}
{"Compound String": "CCN(CC)C(=O)Cn1cnc2c(O)c(I)ccc2c1=O", "Endpoint Result": -0.41}
{"Compound String": "O=C(NCCc1ccccn1)c1ccc2cccc(O)c2n1", "Endpoint Result": -0.82}
{"Compound String": "O/N=C/c1ccc2cccc(O)c2n1", "Endpoint Result": -0.27}
{"Compound String": "O=C(NCc1ccc(F)cc1)c1cnc2c(O)cccn2c1=O", "Endpoint Result": -0.19}
{"Compound String": "CCc1cnc2c(O)cccn2c1=S", "Endpoint Result": -0.32}
{"Compound String": "CCCCNC(=O)c1cnc2c(O)c(I)ccn2c1=O", "Endpoint Result": -0.12}
{"Compound String": "O=C(NC(=S)Nc1cccc2cccnc12)c1ccccc1", "Endpoint Result": 0.28}
{"Compound String": "NCc1ccc2cccc(O)c2n1", "Endpoint Result": -0.59}
{"Compound String": "CCn1cnc2c(O)c(I)ccc2c1=O", "Endpoint Result": -0.54}
{"Compound String": "Br.Oc1cccc2c(=S)n(Cc3ccccn3)cnc12", "Endpoint Result": 0.51}

---

Below, each entry is listed with its recorded Cytotox (% viable) Neuronal cells at 10 μM.
tested on: primary cortical neuronal cultured cells; experiment: Test compound cytotoxicity, MTS assay, primary cortical neuronal cultures; format: cell-based, mouse; details: 10 μM test compound
Measure: Cytotox (% viable) Neuronal cells at 10 μM (%)

{"Compound String": "Oc1c(Cl)cc(Cl)c2cccnc12", "Endpoint Result": 75}
{"Compound String": "Br.CCN(CC)Cc1nc2c(O)c(Cl)cc(Cl)c2c(=O)[nH]1", "Endpoint Result": 93.7}

---

tested on: M17 human neuroblastoma cells; assay: Cytotoxicity, M17 human neuroblastoma cells; format: cell-based; conditions: 10 μM test compound
Measure: Cytotox (% viable) M17 cells at 10 μM (%)

{"Compound": "Br.CC(C)n1cnc2c(O)c(Cl)cc(Cl)c2c1=O", "Endpoint Result": 74.5}
{"Compound": "CCc1cnc2c(O)cccn2c1=O", "Endpoint Result": 27.1}
{"Compound": "Br.CCN(CC)Cc1nc2c(O)c(Cl)cc(Cl)c2c(=O)[nH]1", "Endpoint Result": 99.1}
{"Compound": "CCN(CC)CCNC(=O)c1cnc2c(O)cccn2c1=O", "Endpoint Result": 102.7}
{"Compound": "Cn1ccnc1Cn1cnc2c(O)c(Cl)cc(Cl)c2c1=O", "Endpoint Result": 122.3}
{"Compound": "CC(C)Cn1c(CN(C)C)nc2c(O)c(Cl)cc(Cl)c2c1=O.Cl", "Endpoint Result": 61.5}
{"Compound": "O=c1c2c(Cl)ccc(O)c2ncn1CC1CC1", "Endpoint Result": 57.6}
{"Compound": "O=c1c2ccc(I)c(O)c2ncn1-c1ccc(F)cc1", "Endpoint Result": 36.5}
{"Compound": "CN(C)Cc1ccc2c(Cl)cc(I)c(O)c2n1", "Endpoint Result": 24.4}
{"Compound": "O=c1c2c(Cl)cc(Cl)c(O)c2ncn1C1=CCC=C1", "Endpoint Result": 114.8}
{"Compound": "Br.CN(C)Cc1nc2c(O)c(Cl)cc(Cl)c2c(=O)n1C", "Endpoint Result": 114.7}
{"Compound": "O=c1c2c(Cl)cc(Cl)c(O)c2ncn1-c1ccc2[nH]ncc2c1", "Endpoint Result": 73.5}
{"Compound": "Nc1cc(Cn2cnc3c(O)c(Cl)cc(Cl)c3c2=O)ccn1", "Endpoint Result": 100.7}
{"Compound": "CCNCc1ccc2c(Cl)cc(Cl)c(O)c2n1.Cl", "Endpoint Result": 44}
{"Compound": "Br.CN1CCCC1Cn1cnc2c(O)c(Cl)cc(Cl)c2c1=O (stereo not shown)", "Endpoint Result": 93.9}
{"Compound": "CCCCNC(=O)c1cnc2c(O)c(I)ccn2c1=O", "Endpoint Result": 63.4}
{"Compound": "O=C1c2ccccc2C(=O)N1CCn1cnc2c(O)cccc2c1=O", "Endpoint Result": 106.5}
{"Compound": "O=C(NCc1ccc(F)cc1)c1cnc2c(O)cccn2c1=O", "Endpoint Result": 54.2}
{"Compound": "O=C(O)Cn1cnc2c(O)c(Cl)cc(Cl)c2c1=O", "Endpoint Result": 100.7}
{"Compound": "CCc1c(O)c(O)cc[n+]1CC.[Cl-]", "Endpoint Result": 108.3}
{"Compound": "CCCn1cnc2c(O)c(I)ccc2c1=S", "Endpoint Result": 107.1}
{"Compound": "O=C1NC(=O)c2cc(-n3cnc4c(O)c(Cl)cc(Cl)c4c3=O)ccc21", "Endpoint Result": 110.8}
{"Compound": "O=c1c2c(Cl)cc(Cl)c(O)c2ncn1Cc1nc2ccccc2s1", "Endpoint Result": 80.9}
{"Compound": "CCC(C)n1cnc2c(O)c(Cl)cc(Cl)c2c1=O (stereo not shown)", "Endpoint Result": 68.6}
{"Compound": "O=c1c2ccc(I)c(O)c2ncn1CC1CC1", "Endpoint Result": 62}
{"Compound": "O=c1c2c(Cl)cc(Cl)c(O)c2ncn1Nc1ccc(F)cc1F", "Endpoint Result": 80.5}
{"Compound": "CCN(CC)CCn1cnc2c(O)c(I)ccc2c1=O", "Endpoint Result": 41.4}
{"Compound": "O=c1c2c(Cl)cc(Cl)c(O)c2ncn1CC1CC1", "Endpoint Result": 76.8}

---

tested on: primary cortical neuronal cultured cells; experiment: Test compound cytotoxicity, MTS assay, primary cortical neuronal cultures; assay type: cell-based, mouse; conditions: 10 μM test compound
Lab note: cut-off is 90%. Strictly less in Cytotox (% viable) Neuronal cells at 10 μM is fulfilled. Exactly 90% or more is not fulfilled.

{"Compound String": "Oc1c(C2CC2)ncc2cccnc12", "Category Label": "not fulfilled"}
{"Compound String": "Oc1ccc(/C=C/c2ccc3cccc(O)c3n2)cc1", "Category Label": "fulfilled"}
{"Compound String": "Cc1nc(Cn2cnc3c(O)c(Cl)cc(Cl)c3c2=O)cs1", "Category Label": "not fulfilled"}
{"Compound String": "Oc1cccc2ccc(-c3ccccn3)nc12", "Category Label": "fulfilled"}

---

Below, each entry is listed with its recorded Disaggregation % Aggregate reduction at 5 μM.
target: Abeta:Zn (25:50 μM) Synthetic Aggregations (Homo sapiens, UniProt P05067); construct: PB Compound Mediated Dissolution of Aggregated Abeta 1-42; purchased Keck Laboratory, Yale University School of Medicine; assay: Disaggregation of Abeta:Zn synthetic aggregates (ThT fluorescence); type: biochemical; settings: 5 μM test compound
Sequence (P05067 672-713 limits assumed): as above
Measure: Disaggregation % Aggregate reduction at 5 μM

{"Compound String": "CC(C)c1cnc2c(O)c(I)ccn2c1=O", "Endpoint Result": "42%"}
{"Compound String": "CCn1cnc2c(O)c(I)ccc2c1=O", "Endpoint Result": "25%"}
{"Compound String": "c1ccc(-c2ccccn2)nc1", "Endpoint Result": "32%"}
{"Compound String": "O=c1c2c(Cl)cc(I)c(O)c2ncn1-c1cccnc1", "Endpoint Result": "26%"}
{"Compound String": "O=C1c2ccccc2C(=O)N1CCn1cnc2c(O)cccc2c1=O", "Endpoint Result": "35%"}
{"Compound String": "CCCCCn1cnc2c(O)c(I)ccc2c1=O", "Endpoint Result": "45%"}

---

assay: Mice plasma concentration after oral dose; format: in vivo; settings: 30 min to 4 h after single or repeat oral dose of 30 mg/kg

{"Compound": "CCc1c(O)c(O)cc[n+]1CC.[Cl-] [PB 1270]", "Mice plasma concentration": "≤ 493.7 ng/mL"}

---

system: primary cortical neuronal cultured cells; experiment: Test compound cytotoxicity, MTS assay, primary cortical neuronal cultures; format: cell-based, mouse; details: 10 μM test compound
Measure: Cytotox (% viable) Neuronal cells at 10 μM (%)

{"Compound": "FC(F)(F)CSc1cccc2cccnc12 [PB 913]", "Endpoint Result": 95}
{"Compound": "Cc1cccc(-c2cc(Cl)c3cccnc3c2O)c1 [PB 859]", "Endpoint Result": 73}
{"Compound": "O=c1c2c(Cl)cc(Cl)c(O)c2ncn1Cc1ccn2ccnc2c1 [PB 1252]", "Endpoint Result": 103.1}
{"Compound": "CNCc1ccc2c(Cl)cc(Cl)c(O)c2n1.Cl [PB 1104]", "Endpoint Result": 78}
{"Compound": "O=C(CNC(=O)c1cc(O)c2cccc(O)c2n1)NCCc1c[nH]cn1 [PB 987]", "Endpoint Result": 89}
{"Compound": "CCn1cnc2c(O)c(Cl)cc(Cl)c2c1=O [PB 1115]", "Endpoint Result": 58}
{"Compound": "Br.Oc1cccc2c(=S)n(Cc3ccccn3)cnc12 [PB 1113]", "Endpoint Result": 90}
{"Compound": "Oc1cccc2cccnc12 [PB 42]", "Endpoint Result": 36}
{"Compound": "Cc1cc(C)c2cccnc2c1O [PB 59]", "Endpoint Result": 85}
{"Compound": "Cn1nccc1-n1cnc2c(O)c(Cl)cc(Cl)c2c1=O [PB 1262]", "Endpoint Result": 83.7}
{"Compound": "COc1cccc(-c2cc(Cl)c3cccnc3c2O)c1 [PB 810]", "Endpoint Result": 71}
{"Compound": "Br.CC(C)n1cnc2c(O)c(Cl)cc(Cl)c2c1=O [PB 1108]", "Endpoint Result": 71}
{"Compound": "CCNCc1ccc2c(Cl)cc(Cl)c(O)c2n1.Cl [PB 1051]", "Endpoint Result": 56}
{"Compound": "COc1ccc(-c2cc(Cl)c3cccnc3c2O)cc1 [PB 814]", "Endpoint Result": 31}
{"Compound": "Br.CNCc1nc2c(O)c(Cl)cc(Cl)c2c(=O)n1C [PB 1161]", "Endpoint Result": 103.9}
{"Compound": "CCN(CC)Cc1ccc2c(Cl)cc(Cl)c(O)c2n1.Cl [PB 1106]", "Endpoint Result": 70}
{"Compound": "CCC(C)n1cnc2c(O)c(Cl)cc(Cl)c2c1=O (centres unmarked) [PB 1112]", "Endpoint Result": 67}
{"Compound": "O=c1c2c(Cl)cc(Cl)c(O)c2ncn1CC1CC1 [PB-1076]", "Endpoint Result": 105}
{"Compound": "Oc1c(Cl)cc(Cl)c2ccc(-c3ccccn3)nc12 [PB 1052]", "Endpoint Result": 31}

// provenance: patent US9163018B2
